Source: ChEMBL document CHEMBL1201862

Assay: viability of HCT116 lacking mutant beta-catenin – cell-based, human colon tumor, dose response (AID 1045);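 note: HCT116 colon tumor cells with beta catenin knocked out; cells exposed to compound for 60 hours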
Format: functional
Active and inactive are the calls of the source. The rule behind the calls is not given here.
quantity-measured: EC50

Recorded results for 4 compounds are shown here.
- compound: "COc1cccc(NC(=O)COC(=O)c2c3c(nc4ccccc24)CCC(C)C3)c1 (stereo not given)"
  EC50: "14.4 µM (active)"
- compound: "C=CCNC(=O)/C(C#N)=C/c1ccc(OS(=O)(=O)c2ccc(C)cc2)c(OC)c1"
  EC50: "26.6 µM (active)"
- compound: "COc1cccc(CNCCc2c[nH]c3ccccc23)c1OCc1ccc(F)cc1"
  EC50: "6.39 µM (active)"
- compound: "CCCCNC(=O)CSc1nc2cc(OC)c(OC)cc2c(=O)n1Cc1ccc(OC)cc1"
  EC50: "10.3 µM (active)"

Could you now consider this next compound?
Noted for `COc1cc2c(=O)n(Cc3ccco3)c(=O)n(CC(=O)c3ccc(Br)cc3)c2cc1OC` : its EC50 reads 9.3 µM (active)
